Biological target: Human TRPC6 (Homo sapiens, UniProt Q9Y210)
Construct: expressed in transfected cells
Sequence (Q9Y210 whole entry): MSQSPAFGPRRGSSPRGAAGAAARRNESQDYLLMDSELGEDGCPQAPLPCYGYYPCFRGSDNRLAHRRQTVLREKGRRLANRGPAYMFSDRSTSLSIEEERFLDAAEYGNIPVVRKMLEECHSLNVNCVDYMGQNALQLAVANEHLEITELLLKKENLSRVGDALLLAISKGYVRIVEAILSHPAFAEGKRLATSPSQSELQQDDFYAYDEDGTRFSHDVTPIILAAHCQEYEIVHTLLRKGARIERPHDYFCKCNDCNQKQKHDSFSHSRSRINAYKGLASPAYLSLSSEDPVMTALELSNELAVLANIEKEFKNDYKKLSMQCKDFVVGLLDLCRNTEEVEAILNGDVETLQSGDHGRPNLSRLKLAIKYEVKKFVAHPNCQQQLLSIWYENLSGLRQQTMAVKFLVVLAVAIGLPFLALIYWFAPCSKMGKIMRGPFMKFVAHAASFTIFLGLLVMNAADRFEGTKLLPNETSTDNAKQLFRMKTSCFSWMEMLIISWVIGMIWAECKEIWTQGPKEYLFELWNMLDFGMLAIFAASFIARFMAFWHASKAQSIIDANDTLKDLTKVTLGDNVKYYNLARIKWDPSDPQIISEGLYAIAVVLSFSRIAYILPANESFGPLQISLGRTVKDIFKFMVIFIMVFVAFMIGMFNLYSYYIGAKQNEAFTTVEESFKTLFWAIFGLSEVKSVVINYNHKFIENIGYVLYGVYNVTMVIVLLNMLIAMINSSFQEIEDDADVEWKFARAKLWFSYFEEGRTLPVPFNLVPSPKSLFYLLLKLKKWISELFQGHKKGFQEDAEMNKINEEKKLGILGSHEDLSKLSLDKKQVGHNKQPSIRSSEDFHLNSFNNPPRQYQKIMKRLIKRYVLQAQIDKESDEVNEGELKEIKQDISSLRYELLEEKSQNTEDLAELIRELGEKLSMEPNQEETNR
Test: Evaluation of TRPC6 channel inhibitory activity (1), FLIPR Calcium 5 Assay Kit, OAG stimulation (Compound Nos. 1-1293)
Assay type: cell-based
Conditions: Human TRPC6 stably-expressing cells, OAG 30 μM, FLIPR Calcium 5 Assay Kit; read-out: Inhibitory activity (pIC50 class) (converted)
IC50 values for the compounds below.

Cc1nc(Oc2cc(C#N)ccc2-c2ncc([C@H](O)CN)cn2)cc(-c2ccccc2)n1 | < 10 nM
CC(C)(N)Cc1ccc(-c2ccc(C#N)cc2Oc2cnnc(N3CCOCC3)c2)cc1 | 10 to 1000 nM
Cn1nc(C2CC2)cc1Oc1cc(C#N)ccc1-c1ncc(C2(N)CC2)cn1 | > 1000 nM
Cc1nc(Oc2cc(C#N)ccc2-c2ncc(CN)cn2)cc(N2CCO[C@@H](C)C2)n1 | < 10 nM
Cc1nc(Sc2cc(C#N)ccc2-n2cc(CCN)cn2)cc(N2CCCC2)n1 | 10 to 1000 nM
Cc1cc(Oc2cc(C#N)ccc2-c2ncc([C@H](O)CN)cn2)cc(N2C[C@@H](C)O[C@@H](C)C2)n1 | < 10 nM
COC1CCN(c2cc(Oc3cc(C#N)ccc3-n3cc([C@@H](O)CN)cn3)nc(C)n2)CC1 | > 1000 nM
Cc1nc(Oc2cc(C#N)ccc2-c2cnc(C(O)CN)s2)cc(-c2ccccc2)n1 (stereo not shown) | 10 to 1000 nM
N#Cc1ccc(-c2ncc(CN)cn2)c(Oc2ccc(N3C4CCC3CC4)nc2)c1 | > 1000 nM
N#Cc1ccc(-c2ccc(CCN)cn2)c(C(=O)c2sc(N3CCOCC3)nc2C(F)(F)F)c1 | < 10 nM

For the compound Cc1nc(Oc2cc(C#N)ccc2-c2ccc3c(c2)CC(N)C3=O)cc(N2CCOCC2)n1 (stereo not shown) , what IC50 is on record?
> 1000 nM

For the compound `Cc1cc(Oc2cc(C#N)ccc2-c2ccc(C3(O)CNC3)cn2)cc(N2CCOCC2)n1` , what IC50 is on record?
> 1000 nM

For the compound `Cc1cccc(-c2cc(Oc3cc(C#N)ccc3-n3cc([C@H](O)CN)cn3)nc(C)n2)c1` , what IC50 is on record?
< 10 nM

For the compound Cc1nc(Oc2cc(C#N)ccc2-c2ccc(C(O)CN)c(F)c2)cc(N2CCOCC2)n1 (stereo not shown) , what IC50 is on record?
< 10 nM

For the compound `N#Cc1ccc(-c2ccc(CCN)nc2)c(Oc2cnnc(-c3ccccc3)c2)c1` , what IC50 is on record?
10 to 1000 nM

For the compound `NCCc1cnc(-c2ccc(F)cc2Cc2cnn(-c3ccccn3)c2)nc1` , what IC50 is on record?
> 1000 nM
